# run_description: Gelation test in solvents at room temperature
# Type: physicochemical
# Set-up: key: I, insoluble; P, precipitating; S, soluble at ~20 mg/mL; G, gel at room temperature; number is minimum gelation concentration
# stated_conditions: EtOH:H2O (1:2), room temperature
Non-standard residues stand in square brackets, D forms with d. Residues, ends and D or L forms follow the SMILES beside them. *: point of attachment. Nphe = O=C(O)CNCc1ccccc1; Bz = O=C(c1ccccc1)*
measured_quantity: Gelation test result

Sample answers from the record:
1. O=C(CN(Cc1ccccc1)C(=O)c1ccccc1)NC1CCCCC1; P
2. C[C@H](c1ccccc1)N(CC(=O)NC1CCCCC1)C(=O)c1ccc(Br)cc1; P
3. CCOC(=O)CNC(=O)CN(Cc1ccc(OC)cc1)C(=O)c1ccccc1; P
4. COC1OC2COC(c3ccccc3)OC2C(O)C1N(CC(=O)NC1CCCCC1)C(=O)c1ccc(Br)cc1 (stereo not shown); G
5. COc1ccc(CN(CC(=O)NC2CCCCC2)C(=O)c2ccc(Br)cc2)cc1; P
6. CC(=O)N(CC(=O)NC1CCCCC1)Cc1ccccc1; P
7. CCOC(=O)CNC(=O)CN(C(=O)c1ccc(Br)cc1)C1C(OC)OC2COC(c3ccccc3)OC2C1O (stereo not shown); G
8. C#CCCC(=O)N(CC(=O)NC1CCCCC1)Cc1ccccc1; G
9. COC1OC2COC(c3ccccc3)OC2C(O)C1N(CC(=O)NC1CCCCC1)C(=O)c1ccccc1 (stereo not shown); G
10. O=C(CN(Cc1ccccc1)C(=O)c1ccc([N+](=O)[O-])cc1)NC1CCCCC1; P

Query string: Note down Gelation test result recorded for O=C(CN(Cc1ccccc1)C(=O)c1ccc(Br)cc1)NC1CCCCC1
Result string: P

Query string: Note down Gelation test result recorded for CCOC(=O)CNC(=O)CN(Cc1ccc(OC)cc1)C(=O)c1ccc(Br)cc1
Result string: G

Query string: Note down Gelation test result recorded for CCOC(=O)CNC(=O)CN(Cc1ccccc1)C(=O)c1ccccc1 [Compound 22] (Bz-[Nphe]-Gly-OEt)
Result string: P

Cited source for all entries: patent US20140296354A1
